test: yeast display, Sf9 membrane polyspecificity reagent, FACS + sequencing; frameworks hold sequencing errors
REPORTED ENDPOINT: polyreactivity (PSR sort gate)

Sample answers from the record:
[ask] Identify the reported polyreactivity (PSR sort gate) for the following entry. QEQLQESGGGQVQAGGSLLLSCAASGNIIRYYYMGWYRQAPGKERELVAAITYGTSTNYADSVKGRFTISRDNAINTVYLQMNSLKPEDTAVYYCAVDVNYGDPLDNWGQGTQVTVSS
[reply] high polyreactivity

[ask] Identify the reported polyreactivity (PSR sort gate) for the following entry. QVQLVESGGGLVQAGGSLRLSCAASGFTFERYAMGWYRQAPGKERELVAAITGSGGSTYYADSVKGRFTISRDNAKTTVYLQMNSLKPEDTAVYYCADYSAYYGCDYWGQGTQVTVSS
[reply] low polyreactivity

[ask] Identify the reported polyreactivity (PSR sort gate) for the following entry. QVQLVESGGGLVQAGGSLRLSCAASGFTFWTYAMGWYRQAPGKERELVAAIDSGGSTYYADSVKGRFTISRDNAKNTVYLQMNSLKPEDSAVYYCNAGPSVTSGYDYDYWGQGTQVTVSS
[reply] low polyreactivity

[ask] Identify the reported polyreactivity (PSR sort gate) for the following entry. QVQLVESGGGLVQAGGSLRLICAASGSTFGVYDMGWYRKAPGKERELVAAISWRGITYYADSVKGRFTISRDNAKNTVYLQMNSLNPEDTAVYFCASYEWLAYTSAWYGYWGKGTQVTVSS
[reply] high polyreactivity

Note: attention shifts to another entry.
[ask] Identify the reported polyreactivity (PSR sort gate) for the following entry. QVQLVESGGGLVQAGGSLRLSCAASGRTFVVNAMGWSRQAPGKERELVAAITRRGGITYYADSVKGRFTISRDNAKNTVYLQMNSLKPEDTAVYYCAADRSYYPDTRTTYGYNYWGQGTQVTVSS
[reply] low polyreactivity

----------
assay: yeast display, Sf9 membrane polyspecificity reagent, FACS + sequencing; frameworks hold sequencing errors
REPORTED ENDPOINT: polyreactivity (PSR sort gate)

Sample answers from the record:
[ask] Identify the reported polyreactivity (PSR sort gate) for the following entry. QDQLVESGGGLVQAGGSLRLSCAASGSIFGVYAMGWNRQAPGKERELVAAITRGGRTYYADSVKGRFTISRDNAKNTVYLQMNCLKPEDTAVYYCAALPLRERYGYWGQGTQVTVSS
[reply] high polyreactivity

[ask] Identify the reported polyreactivity (PSR sort gate) for the following entry. QVQLVESGGGLVQAGGSLRLSCAASGYIFRHYAMVWYRQAPGKERELVAAISSSGGRTNYADSLKGRFTISRDNAKITVYLQMNSLKPEDTAVYYCNAGRYQYLGGYGYWGQGTQVTVSS
[reply] low polyreactivity

[ask] Identify the reported polyreactivity (PSR sort gate) for the following entry. QVQLVESGGGLVQAGGSLRLSCAASGIILYGYAMGWYRQAPGKARELVAALTWSGGSTYYADSVKGRFTISRDNAKNTVYLQMNSLKPEDTAVYYCAVDVHTSADASLPQEYDYWGQGTQVTVSS
[reply] low polyreactivity

[ask] Identify the reported polyreactivity (PSR sort gate) for the following entry. QVHLLESGGGLLQAGGSLLISCAAAGRTFGQNAMGWSRQAPGKARELVASIRSGGITDYADSVKGRYTISRDNAKYSVYLQMNSLKPEDTAVYYCNAEGVWWSTRYDSWGQGTQVTVSS
[reply] low polyreactivity

[ask] Identify the reported polyreactivity (PSR sort gate) for the following entry. PVQLVESGGGLVQAGVSLRLSGAASGFIFYYYAMGWYSQAPGKEREFVAAISQSVGSTYYADSVKGRFTISRDNANNTVYLQMNSLKPADTAVYYCNARGWIPARGWDDYYWGQGTQVTVSS
[reply] high polyreactivity

Next:
[ask] Identify the reported polyreactivity (PSR sort gate) for the following entry. QVQLVESGGGLVQAGGSLRLSCAASGRIFYSYGMGWSRQGPGKERELVASITISGGGSTYYADSVKGRFTISRDNAKNTVYLQMISLKPEATAVYYCAATLTVWKYIYDYWGQGTQVTVSS
[reply] high polyreactivity

[ask] Identify the reported polyreactivity (PSR sort gate) for the following entry. QVQLVESGGGLVQAGGRLRLSCAASGSTLSLYDMGRYRQAPGKERELVAAITSSGGTYYADSVKGRFTISRDNAKNTVFLQMKSLKPEDTAVYYCNAYAKDARSYGFHRVNYWGQGTQVTVSS
[reply] high polyreactivity

[ask] Identify the reported polyreactivity (PSR sort gate) for the following entry. QVQLVESVGGLVQAGGSLRLSCAASGSTSRFYDMGSYSQAPGKERELVAAITQSGGSTRYADSVKGRFTISRENAKNTVYLQLNSLKPEDTAVNYCAARVRGYSVTRTKPASIGGGSWGQGTQVTVSS
[reply] high polyreactivity

[ask] Identify the reported polyreactivity (PSR sort gate) for the following entry. QVQLVESGGGLVQAGGSLRLSCAASGLIFANNAMGWYRQAPGKERELVAVISRGGRTYYADSVKGRFTISRDNAKNTVYLQMNSLKPEDTAVYYCAKPVLVGLGSRYDYWGQGTQVTVSS
[reply] high polyreactivity

[ask] Identify the reported polyreactivity (PSR sort gate) for the following entry. QVQLVESGGGLVQAGGSLRLSCAASGSTCGTYAMGWYRQAPGKERELVATISLSGGSTYYADSVKGRFTISRDNAKNTVYLQMNSLKPEDTAVYYCTVKSSYSEYDYWGQGTQVTVSS
[reply] low polyreactivity

[ask] Identify the reported polyreactivity (PSR sort gate) for the following entry. QVQLVESGGGLVQAGGSLRLSCAASGRIFYPYAMGWYRQAPGKERELVAAISRSGGSTYYADSVKGRFTISRDNAKNTVYLQMNSLKPEDTAVYYCAARRGFGPDGEMDYWGQGTQVTVSS
[reply] low polyreactivity

[ask] Identify the reported polyreactivity (PSR sort gate) for the following entry. QVQLVESGGGLVQAGGSLRLSCAASGRTFVVYAMGWYRQAPGKERELVAVIRVIGGSTNYADSVKRRFTISRDNAKNTVYLQMYSLKPEDTAVYYCAAAWSHSRWDTHDYWGQGTQVNVSS
[reply] low polyreactivity

[ask] Identify the reported polyreactivity (PSR sort gate) for the following entry. QVQLVESGGGLVQAGGSLRLSCGASGSIFRLNAMGWYRQAPGKERELVARIDSSGSTNYADSVKGRFTISRDNAKNTVYLQMNSLKPEDTAVYYCAAVLVLIVGMDSWGQGTQVTVSS
[reply] low polyreactivity

[ask] Identify the reported polyreactivity (PSR sort gate) for the following entry. QVQLVESGGGLVQAGGTLRLSCAASGRIFDGNTMGWDRQAPGKERELVAAIRSRGDRTYYADSVKGRFTISRDNAKNTVYLQMNSLKPEDTAVYYCAAQPSWYKPKGSWFEKGLYDYWGQGTQVTVSS
[reply] low polyreactivity

[ask] Identify the reported polyreactivity (PSR sort gate) for the following entry. QVQLVESGGGLGQAGGSLRLSCAASGSTFARNTMGWYRQAPGKERELVAVITRGDSTYYADSVKGRFTISRDNAKNTVNLQMNSLKPEDTAVYYCNAYFRYAYPSKMDYWGQGTQVTVSS
[reply] low polyreactivity

[ask] Identify the reported polyreactivity (PSR sort gate) for the following entry. QVQLVESGGGLVQAGGSLRLSCAASGLTFHRYAMGWYRQAPGKERELVAAINYSGGRTYYADSVKGRFTISRDNAKNTVYLQMNSLKPEDTAVYYCAASLYRRQMDHWGQGTQVTVSS
[reply] high polyreactivity

[ask] Identify the reported polyreactivity (PSR sort gate) for the following entry. QVQLVESGGGLVQAGGSLRLSCAASGSTFKAYAMGLYRPAPGKERELVAAITRRGTSTYYADSVKGRFTISRDNAKNTVYLQMNSLKPEDTAVYYCNAKYVSDRSSAVSFDYWGQGTQVTVSS
[reply] low polyreactivity

[ask] Identify the reported polyreactivity (PSR sort gate) for the following entry. QVQLVESGGGLVQAGGSLRLSCAASGRIFGWYAMGWYRQAPGKERELVAAISSSGVSTNYADSVKGRFTISRDNAKNTVYLQMNSLKPEDTAVYYCIARGFYWYRPYVNSNGGYWGQGTQVTVSS
[reply] high polyreactivity

[ask] Identify the reported polyreactivity (PSR sort gate) for the following entry. QVQLVESGGGLVQEGGSLRLSCAASGSIFIANAMGWYRQAPGKERELVARITRGGRTNYADSVKGRFTISRDNAKNTVYLQMNSLKPEDTAVYYCAAVYYVGFPHKYDYWGQGTQVTVSS
[reply] low polyreactivity

[ask] Identify the reported polyreactivity (PSR sort gate) for the following entry. QVQLVESGGCLVQAGGSLRLICAASGSIFDINAMGWYSQAPGKERELVADIRRGDSTNYADSVKGRFTISRDNAKNTVYLQMNSLKPEDTAVYYCAARWRRSIYGFYPQRPYDYWGQGTQVTVSS
[reply] high polyreactivity

[ask] Identify the reported polyreactivity (PSR sort gate) for the following entry. QVLLQETGGGLVQAGGSLSLSCAASGTISTDIRMGWYRLAPGKEREFVASIDGCSTTYYADSVKGRFTFSRDNAKNTVYLQMNRLIPEDTSMYYCAAREATEFYLYYWGQGTQVTVSS
[reply] low polyreactivity
